B1: library; a variant is named by its letters at N, in order (parent)
chain: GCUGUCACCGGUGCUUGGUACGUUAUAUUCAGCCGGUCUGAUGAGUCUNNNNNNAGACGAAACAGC

- Variants of: B1
- assay: FACS-Seq fitted mean relative fluorescence mCherry/BFP with ligand (log10 relative fluorescence); HEK293T overexpressing SLC46A1; ligand concentration (+) FACS-Seq: 6 mM; higher = higher reporter protein expression
- run parameters: with (6R,S)-folinic acid; ligand present: yes
Quick rule: FACS-Seq fitted mean (log10) of at least 0.3 means Met, below that means Not met.

1) ACUGAG : Met
2) UUCGGC : Not met
3) UCUCGU : Not met
4) AAAAAG : Met
5) UAUGUG : Met
6) GGAAAA : Met
7) UGUUGG : Met
8) GUGCGU : Met
9) GCUCAU : Not met
10) UACACA : Not met
11) GUUCAC : Not met
12) UCAACU : Met
13) AACAAA : Met
14) UCUUGC : Met
15) GCUGGU : Not met
16) GAUUAG : Not met
17) CAUAUU : Not met
18) UCCAGG : Met
19) ACAGAG : Met
20) UGUGGU : Not met
21) AUAACC : Not met
22) GGCAUA : Not met
